The measured values listed here are drawn from patent US20150376198A1.

Known IC50 of a selection of molecules
molecular target: human Arginine Vasopressin Receptor 1a (AVPR1a) (Homo sapiens); experiment: cell-based; conditions: read-out: V1a-R IC50
Sequence (P37288 whole entry): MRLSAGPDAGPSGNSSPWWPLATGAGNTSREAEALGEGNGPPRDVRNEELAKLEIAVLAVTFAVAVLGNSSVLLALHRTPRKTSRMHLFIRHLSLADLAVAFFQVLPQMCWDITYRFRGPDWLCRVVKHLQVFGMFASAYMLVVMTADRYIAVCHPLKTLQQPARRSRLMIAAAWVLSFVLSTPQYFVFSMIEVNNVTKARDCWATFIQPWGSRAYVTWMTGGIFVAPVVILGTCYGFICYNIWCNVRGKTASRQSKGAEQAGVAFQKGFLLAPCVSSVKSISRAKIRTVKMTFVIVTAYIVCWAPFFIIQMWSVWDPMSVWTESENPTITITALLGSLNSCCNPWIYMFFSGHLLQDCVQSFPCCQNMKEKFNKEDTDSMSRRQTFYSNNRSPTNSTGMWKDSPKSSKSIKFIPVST
Your answer should be a plain number; it is taken to be in nM.

MOLECULE	TESTED_SYSTEM	UNIT_LABEL	IC50
O=C(C1CCN(c2ncc(C3CC3)cn2)CC1)N(CC1CC1)c1ccc(Cl)cc1 [Compound 202]	human Arginine Vasopressin Receptor 1a (AVPR1a) (Homo sapiens)	nM	348
Cc1cc(C)nc(N2CCN(C(=O)N(CC3CC3)c3ccc(Cl)cc3)CC2)n1 [Compound 158]	human Arginine Vasopressin Receptor 1a (AVPR1a) (Homo sapiens)	nM	24
O=C(N1CCN(c2ncccc2Cl)CC1)N1CCCCc2cc(Cl)ccc21 [Compound 125]	human Arginine Vasopressin Receptor 1a (AVPR1a) (Homo sapiens)	nM	57
CCC(CC)C(=O)N1CCC(C(=O)N2CCCCc3cc(Cl)ccc32)CC1 [Compound 79]	human Arginine Vasopressin Receptor 1a (AVPR1a) (Homo sapiens)	nM	5400
O=C(N1CCC(O)(c2ccccc2)CC1)N1CCCCc2cc(Cl)ccc21 [Compound 133]	human Arginine Vasopressin Receptor 1a (AVPR1a) (Homo sapiens)	nM	137

Please report the measured IC50 for N#Cc1cccnc1N1CCN(C(=O)N(CC2CC2)c2ccc(Cl)cc2)CC1 [Compound 159]
81

Respond only with IC50 recorded for Cc1cnc(N2CCC(C(=O)N3CCCCc4cc(Cl)ccc43)CC2)c(F)c1 [Compound 222]
5

Return reported IC50. Input molecule: Cc1cccnc1N1CCN(C(=O)N(CC2CC2)c2ccc(Cl)cc2)CC1 [Compound 160]
8

Specify reported IC50 for the molecule shown: O=C(C1CCN(c2ccc(Cl)cn2)CC1)N1CCCCc2cc(Cl)ccc21 [Compound 225]
11

----------
Each entry below carries its recorded log10 of Ki.
target: OT receptor (Homo sapiens, UniProt P30559); assay: OT receptor binding (primary binding at 10 μM and Ki); conditions: read-out: OT binding Ki
Sequence (P30559 whole entry): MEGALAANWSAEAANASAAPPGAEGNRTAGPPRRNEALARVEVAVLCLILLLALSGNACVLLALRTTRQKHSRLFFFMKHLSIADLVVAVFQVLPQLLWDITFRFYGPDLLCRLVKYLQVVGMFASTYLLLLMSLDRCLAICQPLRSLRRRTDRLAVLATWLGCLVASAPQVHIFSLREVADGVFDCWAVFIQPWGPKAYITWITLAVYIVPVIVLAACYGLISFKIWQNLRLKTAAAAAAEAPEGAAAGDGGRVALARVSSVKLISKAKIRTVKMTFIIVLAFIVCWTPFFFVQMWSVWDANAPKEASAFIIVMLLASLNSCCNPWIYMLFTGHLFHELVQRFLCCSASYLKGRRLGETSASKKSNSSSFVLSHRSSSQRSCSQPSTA
The figures below represent log10 of Ki, where Ki is stated in nM.

COMPOUND	log10 of Ki
CCN(C(=O)N1CCN(c2ccccc2C)CC1)c1ccc(OC)cc1	1.11
COc1ccc(N(CC2CC2)C(=O)N2CCN(c3ccccc3C(F)(F)F)CC2)cc1	0.36
CCN(C(=O)N1CCN(c2ncccc2C#N)CC1)c1ccc(OC)cc1	2.88
COc1ccc(N(CC2CC2)C(=O)N2CCN(c3ncc(Cl)cc3Cl)CC2)cc1	0.61
CCN(C(=O)N1CCN(c2ncccc2C(F)(F)F)CC1)c1ccc(OC)cc1	1.65
CCN(C(=O)N1CCN(Cc2ccccc2)CC1)c1ccc(OC)cc1	3.07
COc1ccccc1N1CCN(C(=O)N(CC2CC2)c2ccc(OC(F)(F)F)cc2)CC1	0.36
Cc1ccccc1N1CCN(C(=O)N(CC2CC2)c2ccc(OC(F)(F)F)cc2)CC1	1.79

Find log10 of Ki for Cc1ccccc1N1CCN(C(=O)N(CC2CC2)CC2CCCO2)CC1 (stereo not drawn) on OT receptor (Homo sapiens, UniProt P30559) and write it down.
2.51

Check OT receptor (Homo sapiens, UniProt P30559) data and give log10 of Ki for COc1ccc(N(CC2CC2)C(=O)N2CCN(c3ccccc3C)CC2)cc1 .
0.00

Print OT receptor (Homo sapiens, UniProt P30559) log10 of Ki for CCN(C(=O)N1CCN(c2ccccn2)CC1)c1ccc(OC)cc1 .
2.07

Please respond with reported log10 of Ki (system OT receptor (Homo sapiens, UniProt P30559)) for CCN(C(=O)N1CCCN(c2ncccc2C(F)(F)F)CC1)c1ccc(OC)cc1 .
2.52

----------
Quick reference: IC50 of the listed items.
target: human Arginine Vasopressin Receptor 1a (AVPR1a) (Homo sapiens); experiment: cell-based; conditions: read-out: V1a-R IC50
Show the value, then the unit it is measured in.

SMILES_REPR	TESTED_SYSTEM	IC50
Cc1cc(N2CCC(C(=O)N(CC3CC3)c3ccc(Cl)cc3)CC2)nc(C)n1	human Arginine Vasopressin Receptor 1a (AVPR1a) (Homo sapiens)	1250 nM
O=C(C1CCN(c2ncc(C(F)(F)F)cn2)CC1)N(CC1CC1)c1ccc(Cl)cc1	human Arginine Vasopressin Receptor 1a (AVPR1a) (Homo sapiens)	570 nM
Cc1cc(C)nc(N2CCC(C(=O)N3CCCC(=O)c4cc(Cl)ccc43)CC2)n1	human Arginine Vasopressin Receptor 1a (AVPR1a) (Homo sapiens)	158 nM

Please look at O=C1Nc2ccccc2C2(CCN(C(=O)N3CCCCc4cc(Cl)ccc43)CC2)O1 and tell me its recorded IC50 on human Arginine Vasopressin Receptor 1a (AVPR1a) (Homo sapiens).
305 nM

Answer with IC50 of O=C(C1CCN(c2ncnc3cc(Cl)ccc23)CC1)N(CC1CC1)c1ccc(Cl)cc1 measured for human Arginine Vasopressin Receptor 1a (AVPR1a) (Homo sapiens).
861 nM

Fill: IC50 (human Arginine Vasopressin Receptor 1a (AVPR1a) (Homo sapiens)) for this compound Cc1cc(N2CCC(C(=O)N3CCCCc4cc(Cl)ccc43)CC2)nc(C)n1
405 nM

Give IC50 for O=C(N1CCN(c2ccccn2)CC1)N1CCCCc2cc(Cl)ccc21 tested on human Arginine Vasopressin Receptor 1a (AVPR1a) (Homo sapiens).
80 nM

State measured IC50 of the compound Cc1cc(C)nc(N2CCC(C(=O)N(CCC(C)C)c3ccc(Cl)cc3)CC2)n1 with human Arginine Vasopressin Receptor 1a (AVPR1a) (Homo sapiens).
794 nM

----------
target: human Arginine Vasopressin Receptor 1a (AVPR1a) (Homo sapiens); experiment: cell-based; conditions: read-out: V1a-R IC50
QUANTITY_KIND: IC50 (nM)
Output spec: scalar in nM, unitless text.

Worked set:
MOLECULE	QUANTITY_KIND	NUMERIC_RESULT
Cc1nc(N2CCC(C(=O)N3CCCCc4cc(Cl)ccc43)CC2)c2ccccc2n1	IC50	32
CCc1cnc(N2CCC(C(=O)N3CCCCc4cc(Cl)ccc43)CC2)nc1	IC50	49
O=C(C1CCN(c2ncc(F)cn2)CC1)N(CC1CC1)c1ccc(Cl)cc1	IC50	91
COc1ccnc(N2CCC(C(=O)N(CC3CC3)c3ccc(Cl)cc3)CC2)n1	IC50	17
Cc1ccnc(N2CCC(C(=O)N(CC3CC3)c3ccc(Cl)cc3)CC2)n1	IC50	51
CS(=O)(=O)c1ccc(C(=O)N2CCC(C(=O)N3CCCCc4cc(Cl)ccc43)CC2)cc1	IC50	12900
O=C(N1CCC2(CC1)OCc1ccccc12)N1CCCCc2cc(Cl)ccc21	IC50	78
Cc1cncc(C(=O)N2CCC(C(=O)N3CCCCc4cc(Cl)ccc43)CC2)c1	IC50	1160
O=C(C1CCN(c2ccc(C(F)(F)F)cn2)CC1)N(CC1CC1)c1ccc(Cl)cc1	IC50	123
O=C(N1CCN(c2ccc(C(F)(F)F)cc2)CC1)N1CCCCc2cc(Cl)ccc21	IC50	29

Name the recorded IC50 of the item O=C(C1CCN(c2ncccc2C(F)(F)F)CC1)N(CC1CC1)c1ccc(Cl)cc1 in your answer.
84

Given the molecule O=C(C1CCN(c2cc(C(F)(F)F)ccn2)CC1)N1CCCCc2cc(Cl)ccc21 , write its reported IC50.
17

Look up IC50 of CC(C)(C)C(=O)N1CCC(C(=O)N2CCCCc3cc(Cl)ccc32)CC1 and report it.
2490

Provide only the value of recorded IC50 for Cc1cnc(N2CCC(C(=O)N(CC3CC3)c3ccc(Cl)cc3)CC2)c(F)c1
20

Item Cc1cc(C)nc(N2CCC(C(=O)N(CC3CC3)c3ccc(Cl)cc3)CC2)n1 : provide IC50
8

Determine its reported IC50: O=C(c1cccc(C(F)(F)F)c1)N1CCC(C(=O)N2CCCCc3cc(Cl)ccc32)CC1
595

Specify measured IC50 for Cc1cccc(N2CCC(C(=O)N(CC3CC3)c3ccc(Cl)cc3)CC2)n1 .
23

For the molecule O=C(c1cccc(F)c1F)N1CCC(C(=O)N2CCCCc3cc(Cl)ccc32)CC1 , report IC50.
1860

Specify measured IC50 for C#CCN(C(=O)C1CCN(c2nc(C)cc(C)n2)CC1)c1ccc(Cl)cc1 .
28

Give reported IC50 value for O=C(N1CCN(c2ccccc2)CC1)N1CCCCc2cc(Cl)ccc21
27

Answer with the recorded IC50 of CCC(CC)N(C(=O)C1CCN(c2nc(C)cc(C)n2)CC1)c1ccc(Cl)cc1 only.
4940

Identify measured IC50 associated with Cc1ccc(Cl)cc1N1CCN(C(=O)N2CCCCc3cc(Cl)ccc32)CC1
279

// fetch IC50 given entry O=C(C1CCN(c2ncnc3cc(Cl)ccc23)CC1)N1CCCCc2cc(Cl)ccc21
66

Please give measured IC50 of the following entry: O=C(C1CCN(c2ncc3c(n2)CCC3)CC1)N(CC1CC1)c1ccc(Cl)cc1
33

Name the recorded IC50 of the item O=C(c1ccncc1)N1CCC(C(=O)N2CCCCc3cc(Cl)ccc32)CC1 in your answer.
5810

Answer with reported IC50 of O=C(C1CCN(c2ncc(C3CC3)cn2)CC1)N1CCCCc2cc(Cl)ccc21
69
